- target desc: Transient receptor potential cation channel subfamily V member 1 (Homo sapiens, UniProt Q8NER1)
- Sequence (Q8NER1 whole entry): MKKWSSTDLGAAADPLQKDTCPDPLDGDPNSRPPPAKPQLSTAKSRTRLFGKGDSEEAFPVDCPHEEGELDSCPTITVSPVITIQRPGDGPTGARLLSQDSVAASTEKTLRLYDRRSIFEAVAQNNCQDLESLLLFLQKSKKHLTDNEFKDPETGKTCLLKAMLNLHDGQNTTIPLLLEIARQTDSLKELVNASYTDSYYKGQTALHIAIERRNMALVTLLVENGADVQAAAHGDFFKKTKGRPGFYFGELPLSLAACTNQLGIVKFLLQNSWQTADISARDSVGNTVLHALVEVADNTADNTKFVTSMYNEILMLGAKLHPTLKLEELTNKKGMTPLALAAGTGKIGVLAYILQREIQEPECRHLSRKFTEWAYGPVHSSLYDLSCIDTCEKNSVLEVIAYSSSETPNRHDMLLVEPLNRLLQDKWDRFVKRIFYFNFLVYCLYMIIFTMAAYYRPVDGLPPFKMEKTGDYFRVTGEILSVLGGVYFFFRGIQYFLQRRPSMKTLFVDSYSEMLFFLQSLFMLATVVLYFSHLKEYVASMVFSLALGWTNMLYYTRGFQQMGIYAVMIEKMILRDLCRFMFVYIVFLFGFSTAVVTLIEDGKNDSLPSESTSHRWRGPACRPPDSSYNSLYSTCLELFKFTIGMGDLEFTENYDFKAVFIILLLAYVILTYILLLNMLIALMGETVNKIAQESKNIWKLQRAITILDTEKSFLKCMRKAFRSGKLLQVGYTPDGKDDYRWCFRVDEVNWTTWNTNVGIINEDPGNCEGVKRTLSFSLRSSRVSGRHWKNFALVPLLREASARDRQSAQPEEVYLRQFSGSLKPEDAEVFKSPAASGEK
- method summary: Agonist activity at human recombinant TRPV1 expressed in human HEK293 cells
measured attribute: EC50 (nM)
Give the quantity in nM, number only.

Lookup result for C=C(C)[C@]12C[C@@H](C)[C@@]3(OCc4ccccc4)[C@@H](C=C(COC(=O)CCc4cc(OC)c(O)cc4I)C[C@]4(O)C(=O)C(C)=C[C@@H]34)[C@H]1OCO2 ; measured EC50: 7.9

Lookup result for C=C(C)[C@]12C[C@@H](C)[C@@]3(OCc4ccccc4)[C@@H](C=C(COC(=O)c4cc(OC)c(O)cc4I)C[C@]4(O)C(=O)C(C)=C[C@@H]34)[C@H]1OCO2 ; measured EC50: 15.2

Lookup result for C=C(C)[C@]12C[C@@H](C)[C@@]3(OCc4ccccc4)[C@@H](C=C(COC(=O)CCc4cc(I)c(O)c(OC)c4)C[C@]4(O)C(=O)C(C)=C[C@@H]34)[C@H]1OCO2 ; measured EC50: 8.6

Lookup result for C=C(C)[C@]12C[C@@H](C)[C@@]3(OCc4ccccc4)[C@@H](C=C(COC(=O)c4ccc(O)c(OC)c4)C[C@]4(O)C(=O)C(C)=C[C@@H]34)[C@H]1OCO2 ; measured EC50: 9.4
